test system: cysteine peptide Ac-RFAACAA-COOH; test: efficacy of cysteine peptide change (negative = depletion) (% activity); higher = less depletion; conditions: incubation time: 24 h
QUANTITY MEASURED: efficacy of cysteine peptide change

# COMPOUND, ASSAY RESULT
data = [
    ("CC[C@@]1(O)C(=O)OCc2c1cc1n(c2=O)Cc2c-1nc1ccccc1c2/C=N/OC(C)(C)C [Gimatecan]", -75.2),
    ("CCN(CC)CCSC(=O)C(c1ccccc1)c1ccccc1 [Thiphenamil]", -82.9),
    ("O=C1C=CC(=O)c2ccccc21 [1,4-NAPHTHOQUINONE*]", -107),
]

I: Clc1ccccc1-c1nc(-c2ccncc2)no1 [Pifexole]
II: CC(C)(C)c1cc(O)ccc1O [tert-Butylhydroquinone]
Name the one with the greater efficacy of cysteine peptide change value, either I or II as given. Please identify the chosen entry by its label. I

----------
system: cysteine peptide Ac-RFAACAA-COOH; test: efficacy of cysteine peptide change (negative = depletion) (% activity); higher = less depletion; settings: incubation time: 24 h
QUANTITY MEASURED: efficacy of cysteine peptide change

# MOLECULE, efficacy of cysteine peptide change
records = [
    ("CCCCOCCOCCOCCO [2-[2-(2-Butoxyethoxy)ethoxy]ethanol]", 37.2),
    ("O=[N+]([O-])c1cc([N+](=O)[O-])c2ccccc2c1 [1,3-Dinitronaphthalene]", -32.4),
    ("COP(=S)(OC)Oc1ccc(SC)c(C)c1 [Fenthion]", 0.74),
    ("O=C1C(Cl)=C(Cl)C(=O)C(Cl)=C1Cl [Chloranil]", -73.9),
    ("O=[N+]([O-])c1cc(C(F)(F)F)c(Cl)c([N+](=O)[O-])c1Cl [2,4-Dichloro-1,3-dinitro-5-(trifluoromethyl)benzene]", -83.7),
]

I: Clc1nc(C(Cl)(Cl)Cl)c(Cl)c(Cl)c1Cl [2,3,4,5-Tetrachloro-6-(trichloromethyl)pyridine]
II: Cc1cc(C2(c3cc(C)c(O)cc3C)OS(=O)(=O)c3ccccc32)c(C)cc1O [p-Xylenol blue]
III: CC(C)=CCC/C(C)=C\CO [(2Z)-3,7-Dimethylocta-2,6-dien-1-ol]
Please list the entries, largest efficacy of cysteine peptide change first. Response format: the labels, sorted as the prompt asks. I, II, III
(I: -2.03, II: -13.7, III: -76.1)

----------
tested on: KeratinoSens (HaCaT ARE-luciferase) cells; assay: AC50 of Nrf2/ARE luciferase induction; higher = less potent; settings: exposure time: 24 h
Documented AC50 of Nrf2/ARE luciferase induction across a set of molecules
# unit: µM | format: bare number

# MOLECULE, QUANTITY MEASURED, UNIT, ASSAY RESULT
measured = [
    ("O=[N+]([O-])c1c(Cl)c(Cl)c(Cl)c(Cl)c1Cl", "AC50 of Nrf2/ARE luciferase induction", "µM", 42.1),
]

Find the measured AC50 of Nrf2/ARE luciferase induction of CC(C)=CCOc1ccc(/C=C/C(=O)c2ccc(OCC=C(C)C)cc2OCC(=O)O)cc1 and report it. 33

Find the measured AC50 of Nrf2/ARE luciferase induction of CC(C)=CCC1=C(O)c2ccccc2C(=O)C1=O and report it. 26.7

Find the measured AC50 of Nrf2/ARE luciferase induction of c1cc(N(CC2CO2)CC2CO2)ccc1OCC1CO1 (stereo not given) and report it. 32.9

Find the measured AC50 of Nrf2/ARE luciferase induction of O=C(Nc1ccccc1)c1cc([N+](=O)[O-])ccc1Cl [2-Chloro-5-nitro-N-phenylbenzamide] and report it. 40

Find the measured AC50 of Nrf2/ARE luciferase induction of [CH3][Hg][Cl] [Methyl mercuric (II) chloride] and report it. 3.98

Find the measured AC50 of Nrf2/ARE luciferase induction of c1ccc2c(c1)OCC(C1=NCCN1)O2 (stereo not given) and report it. 12.6

Find the measured AC50 of Nrf2/ARE luciferase induction of N#C/C=C/C#N and report it. 32.9

Find the measured AC50 of Nrf2/ARE luciferase induction of c1csc(SSc2cccs2)c1 [2-Thienyl disulfide] and report it. 33.5

Find the measured AC50 of Nrf2/ARE luciferase induction of CCOc1ccc2nc(S(N)(=O)=O)sc2c1 [Ethoxzolamide] and report it. 25.3

----------
test system: KeratinoSens (HaCaT ARE-luciferase) cells; assay: AC50 of Nrf2/ARE luciferase induction; higher = less potent; details: exposure time: 24 h
QUANTITY MEASURED: AC50 of Nrf2/ARE luciferase induction (µM)
# unit: µM | format: bare number

Example cases with answers are listed next.
# COMPOUND, MEASURED TARGET, QUANTITY MEASURED, ASSAY RESULT
rows = [
    ("CCCCNC(=O)OCC#CI", "KeratinoSens (HaCaT ARE-luciferase) cells", "AC50 of Nrf2/ARE luciferase induction", 27.3),
    ("CN(C)c1ccc(N)cc1", "KeratinoSens (HaCaT ARE-luciferase) cells", "AC50 of Nrf2/ARE luciferase induction", 17.1),
    ("C=CC(=O)OCCCCOC(=O)C=C [1,4-Butanediol diacrylate]", "KeratinoSens (HaCaT ARE-luciferase) cells", "AC50 of Nrf2/ARE luciferase induction", 35.5),
    ("[Cl][Cd][Cl] [Cadmium II chloride]", "KeratinoSens (HaCaT ARE-luciferase) cells", "AC50 of Nrf2/ARE luciferase induction", 18.9),
    ("c1ccc(Nc2ccc(Nc3ccccc3)cc2)cc1", "KeratinoSens (HaCaT ARE-luciferase) cells", "AC50 of Nrf2/ARE luciferase induction", 22.5),
    ("NNC(N)=S [Thiosemicarbazide]", "KeratinoSens (HaCaT ARE-luciferase) cells", "AC50 of Nrf2/ARE luciferase induction", 15.8),
    ("CCN(CC)CCNc1ccc(CNC=O)c2sc3ccc(OC)cc3c(=O)c12", "KeratinoSens (HaCaT ARE-luciferase) cells", "AC50 of Nrf2/ARE luciferase induction", 63.9),
    ("Cc1c(C)n(CCN(C)C)c2ccc(C(=O)OCCN(C)C)cc12 [Amindocate]", "KeratinoSens (HaCaT ARE-luciferase) cells", "AC50 of Nrf2/ARE luciferase induction", 29.8),
]

Now let's try a different one.
Find the measured AC50 of Nrf2/ARE luciferase induction of Nc1nnc(-c2ccc([N+](=O)[O-])o2)o1 and report it. 26.2

----------
test system: lysine peptide Ac-RFAAKAA-COOH; assay: efficacy of lysine peptide change (negative = depletion) (% activity); higher = less depletion; details: incubation time: 24 h
QUANTITY MEASURED: efficacy of lysine peptide change

# MOLECULE, MEASURED TARGET, ASSAY RESULT
rows = [
    ("[OH-].c1cc[c]([Sn+]([c]2ccccc2)[c]2ccccc2)cc1 [Triphenyltin hydroxide]", "lysine peptide Ac-RFAAKAA-COOH", 14.6),
    ("[Cl][Bi]([Cl])([c]1ccccc1)([c]1ccccc1)[c]1ccccc1 [Triphenylbismuthine dichloride]", "lysine peptide Ac-RFAAKAA-COOH", 23.5),
    ("CC(C)OC(=S)S [Proxan-sodium]", "lysine peptide Ac-RFAAKAA-COOH", 10.8),
    ("O=C(O)c1cccnc1Nc1cccc(C(F)(F)F)c1 [Niflumic acid]", "lysine peptide Ac-RFAAKAA-COOH", 93.9),
    ("Cc1c(C)n(Cc2ccccc2)c2ccc(C(=O)OCCN(C)C)cc12 [Indocate]", "lysine peptide Ac-RFAAKAA-COOH", 90.6),
]

1: NC(=O)N/N=C/c1ccc([N+](=O)[O-])o1 [Nitrofurazone]
2: Nc1cc(Cl)c(O)c(Cl)c1 [4-Amino-2,6-dichlorophenol]
3: O=C(OCc1ccccc1)c1ccc(O)cc1 [Benzylparaben]
4: Cc1c(C)n(CCN(C)C)c2ccc(C(=O)OCCN(C)C)cc12 [Amindocate]
5: c1ccc2[nH]c(-c3cscn3)nc2c1 [Thiabendazole]
Please list the entries, largest efficacy of lysine peptide change first. Response format: the labels, sorted as the prompt asks. 3, 4, 5, 1, 2
(3: 90.8, 4: 58.5, 5: 0.27, 1: -8.37, 2: -45.6)

----------
system: cysteine peptide Ac-RFAACAA-COOH; assay: efficacy of cysteine peptide change (negative = depletion) (% activity); higher = less depletion; conditions: incubation time: 24 h
QUANTITY MEASURED: efficacy of cysteine peptide change

# COMPOUND, MEASURED TARGET, efficacy of cysteine peptide change
measured = [
    ("Nc1ccc2cc3ccccc3cc2c1", "cysteine peptide Ac-RFAACAA-COOH", -84.3),
    ("C/C=C/C=C/CCCCCCCO", "cysteine peptide Ac-RFAACAA-COOH", -104),
    ("CCOP(=S)(OCC)SC(CCl)N1C(=O)c2ccccc2C1=O (stereo not given)", "cysteine peptide Ac-RFAACAA-COOH", -101),
    ("NCCc1ccc(O)cc1", "cysteine peptide Ac-RFAACAA-COOH", 10.7),
    ("COc1ccc(C(c2ccc(OC)cc2)C(Cl)(Cl)Cl)cc1", "cysteine peptide Ac-RFAACAA-COOH", 2.72),
    ("C=C1CC[C@H](O)C/C1=C/C=C1\\CCC[C@]2(C)[C@@H]([C@H](C)/C=C/[C@H](C)C(C)C)CC[C@@H]12", "cysteine peptide Ac-RFAACAA-COOH", -99.4),
]

A: Nc1ccccc1N
B: O=[N+]([O-])c1cc(Cl)c(Cl)c(Cl)c1Cl
C: CCCCCCCCCCCCOCCO
D: CCCOc1ccc2[nH]c(NC(=O)OC)nc2c1
Please list the entries, largest efficacy of cysteine peptide change first. Response format: the labels, sorted as the prompt asks. C, D, B, A
(C: 73.8, D: 0, B: -5.15, A: -90.9)
